target: β-N-acetylglucosaminidase (from jack bean); experiment: Inhibition assay against commercial β-N-acetylglucosaminidase (jack bean), p-nitrophenyl N-acetyl-β-D-glucosaminide substrate; conditions: pH 5.5, 37° C.; average of three determinations ± s.e.m.; NI = no inhibition detected at 200 μM; read-out: Jack beans Hex
Where a name gives a salt, the structure may show the parent alone.
Returns: string. Value is 1 if measured Ki is below 2 µM, and -1 if it is greater than or equal to it.

Query: Dear colleague, could you confirm whether Ki of CC(=O)N[C@H]1CN2/C(=N/Cc3ccccc3CN=[N+]=[N-])SC[C@@H]2[C@@H](O)[C@@H]1O [Compound 9, Hydrochloride] falls below 2 µM? Thanks.
Result: -1

Lab note: next compound to report on.
Query: Dear colleague, could you confirm whether Ki of CC(=O)N[C@H]1CN2/C(=N/Cc3ccc(CN=[N+]=[N-])cc3)SC[C@@H]2[C@@H](O)[C@@H]1O [Compound 11, Hydrochloride] falls below 2 µM? Thanks.
Result: -1
